Value source: ChEMBL document CHEMBL5634123

# tested-on: Histone deacetylase 4 (Homo sapiens)
# Sequence (P56524 whole entry): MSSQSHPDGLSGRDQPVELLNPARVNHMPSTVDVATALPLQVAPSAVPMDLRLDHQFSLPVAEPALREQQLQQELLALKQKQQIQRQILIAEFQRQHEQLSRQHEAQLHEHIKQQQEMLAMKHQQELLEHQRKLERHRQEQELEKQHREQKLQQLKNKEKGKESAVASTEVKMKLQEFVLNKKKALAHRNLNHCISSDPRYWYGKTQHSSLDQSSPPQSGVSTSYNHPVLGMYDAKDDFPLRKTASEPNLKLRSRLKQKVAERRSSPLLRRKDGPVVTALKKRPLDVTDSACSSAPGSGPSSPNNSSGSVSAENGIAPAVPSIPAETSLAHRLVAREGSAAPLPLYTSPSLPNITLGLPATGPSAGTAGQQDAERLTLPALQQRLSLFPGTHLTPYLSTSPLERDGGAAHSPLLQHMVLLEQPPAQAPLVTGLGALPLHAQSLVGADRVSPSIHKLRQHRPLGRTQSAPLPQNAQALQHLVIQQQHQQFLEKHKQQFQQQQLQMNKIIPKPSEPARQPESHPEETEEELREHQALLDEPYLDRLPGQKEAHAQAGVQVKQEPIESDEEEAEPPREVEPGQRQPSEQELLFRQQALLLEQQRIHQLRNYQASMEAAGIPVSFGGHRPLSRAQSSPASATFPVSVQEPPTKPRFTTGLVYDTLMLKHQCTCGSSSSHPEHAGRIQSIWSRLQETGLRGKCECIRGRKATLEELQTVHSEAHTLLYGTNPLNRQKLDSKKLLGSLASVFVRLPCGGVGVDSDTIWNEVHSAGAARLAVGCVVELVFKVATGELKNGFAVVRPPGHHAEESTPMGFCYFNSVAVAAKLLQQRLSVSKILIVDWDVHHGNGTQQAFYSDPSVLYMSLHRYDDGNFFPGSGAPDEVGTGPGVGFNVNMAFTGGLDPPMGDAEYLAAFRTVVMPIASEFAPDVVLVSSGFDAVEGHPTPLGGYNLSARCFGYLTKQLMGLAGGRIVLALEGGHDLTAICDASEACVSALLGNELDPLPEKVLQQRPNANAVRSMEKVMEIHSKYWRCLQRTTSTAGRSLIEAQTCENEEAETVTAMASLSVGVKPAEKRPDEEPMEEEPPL
reported-metric: IC50 (µM)
Your answer should be a plain number; it is taken to be in µM.

Request: # return recorded IC50 for entry "Cn1c([C@@H](Cc2ccccc2)NCc2ccccc2)nc2cc(C(=O)NO)ccc21"
Response: 1.93

* * *

# test-summary: Oral bioavailability in mouse at 10 mg/kg
# Type: ADME, organism-based
# test-parameters: in vivo
reported-metric: bioavailability
Answers without a unit are incomplete; give the number and then its unit.

Request: # return recorded bioavailability for entry O=C(CCCCCCNC(=O)c1cnc(N(c2ccccc2)c2ccccc2)nc1)NO [RICOLINOSTAT]
Response: 6%

Request: # return recorded bioavailability for entry "Cn1c([C@@H](Cc2ccccc2)NCc2ccccc2)nc2cc(C(=O)NO)ccc21"
Response: 4.6%

* * *

So I've got a bunch of compounds here, and I need their half-life values.
# test-summary: Half life in mouse at 1 mg/kg, iv
# Type: ADME, organism-based
# test-parameters: in vivo
Your answer should be a plain number; it is taken to be in min.

Request: # return recorded half-life for entry "Cn1c([C@@H](Cc2ccccc2)NCc2ccccc2)nc2cc(C(=O)NO)ccc21"
Response: 41.9

Request: # return recorded half-life for entry O=C(CCCCCCNC(=O)c1cnc(N(c2ccccc2)c2ccccc2)nc1)NO [RICOLINOSTAT]
Response: 22.3

* * *

# tested-on: Histone deacetylase 8 (Homo sapiens)
# Sequence (Q9BY41 whole entry): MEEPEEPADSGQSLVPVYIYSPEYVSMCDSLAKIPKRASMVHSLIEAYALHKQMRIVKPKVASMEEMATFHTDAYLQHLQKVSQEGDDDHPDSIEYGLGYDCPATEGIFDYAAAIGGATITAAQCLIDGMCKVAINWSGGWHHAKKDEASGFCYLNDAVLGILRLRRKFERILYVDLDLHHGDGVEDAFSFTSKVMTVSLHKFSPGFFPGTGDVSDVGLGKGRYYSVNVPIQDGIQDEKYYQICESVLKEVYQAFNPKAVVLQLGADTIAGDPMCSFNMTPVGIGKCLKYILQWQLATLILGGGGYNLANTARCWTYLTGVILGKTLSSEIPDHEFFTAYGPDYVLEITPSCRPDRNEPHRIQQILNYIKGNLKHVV
reported-metric: IC50 (nM)
Your answer should be a plain number; it is taken to be in nM.

Request: # return recorded IC50 for entry "Cn1c([C@@H](Cc2ccccc2)NCc2ccccc2)nc2cc(C(=O)NO)ccc21"
Response: 867

* * *

# test-summary: AUC (0 to t) in mouse at 1 mg/kg, iv
# Type: ADME, organism-based
# test-parameters: in vivo
So I've got a bunch of compounds here, and I need their AUC(0-t) values.
Your answer should be a plain number; it is taken to be in µg·h/mL.

Request: # return recorded AUC(0-t) for entry O=C(CCCCCCNC(=O)c1cnc(N(c2ccccc2)c2ccccc2)nc1)NO [RICOLINOSTAT]
Response: 0.566

Request: # return recorded AUC(0-t) for entry "Cn1c([C@@H](Cc2ccccc2)NCc2ccccc2)nc2cc(C(=O)NO)ccc21"
Response: 0.202

* * *

# tested-on: Histone deacetylase 11 (Homo sapiens, UniProt Q96DB2)
# Sequence (Q96DB2 whole entry): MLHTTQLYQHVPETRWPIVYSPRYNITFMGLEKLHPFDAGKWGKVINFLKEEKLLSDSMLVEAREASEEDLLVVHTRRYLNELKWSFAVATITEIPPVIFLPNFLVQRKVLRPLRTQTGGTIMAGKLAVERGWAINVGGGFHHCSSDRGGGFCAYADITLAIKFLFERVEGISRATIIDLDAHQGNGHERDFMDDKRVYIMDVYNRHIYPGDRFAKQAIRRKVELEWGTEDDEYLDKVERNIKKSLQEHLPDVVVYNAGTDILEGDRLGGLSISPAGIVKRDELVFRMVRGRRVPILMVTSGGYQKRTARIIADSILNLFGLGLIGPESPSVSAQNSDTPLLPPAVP
reported-metric: pIC50
The value called pIC50 is obtained by taking minus log10 of the concentration in mol/L.

Request: # return recorded pIC50 for entry "Cn1c([C@@H](Cc2ccccc2)NCc2ccccc2)nc2cc(C(=O)NO)ccc21"
Response: 6.01

* * *

So I've got a bunch of compounds here, and I need their clearance values.
# test-summary: Clearance in mouse at 1 mg/kg, iv
# Type: ADME, organism-based
# test-parameters: in vivo
Your answer should be a plain number; it is taken to be in mL/min/kg.

Request: # return recorded clearance for entry "Cn1c([C@@H](Cc2ccccc2)NCc2ccccc2)nc2cc(C(=O)NO)ccc21"
Response: 82.9

Request: # return recorded clearance for entry O=C(CCCCCCNC(=O)c1cnc(N(c2ccccc2)c2ccccc2)nc1)NO [RICOLINOSTAT]
Response: 29.4

* * *

# test-summary: Volume of distribution at steady state in mouse at 1 mg/kg, iv
# Format: ADME, organism-based
# test-parameters: in vivo, read-out: Vdss
reported-metric: Vd

Request: # return recorded Vd for entry "O=C(CCCCCCNC(=O)c1cnc(N(c2ccccc2)c2ccccc2)nc1)NO"
Response: 0.525 L/kg

Request: # return recorded Vd for entry "Cn1c([C@@H](Cc2ccccc2)NCc2ccccc2)nc2cc(C(=O)NO)ccc21"
Response: 2.29 L/kg

* * *

# test-summary: Half life in mouse at 10 mg/kg, po
# Type: ADME, organism-based
# test-parameters: in vivo
reported-metric: half-life (min)
Your answer should be a plain number; it is taken to be in min.

Request: # return recorded half-life for entry "Cn1c([C@@H](Cc2ccccc2)NCc2ccccc2)nc2cc(C(=O)NO)ccc21"
Response: 20

* * *

# tested-on: Protein deacetylase HDAC6 (Homo sapiens, UniProt Q9UBN7)
# Sequence (Q9UBN7 whole entry): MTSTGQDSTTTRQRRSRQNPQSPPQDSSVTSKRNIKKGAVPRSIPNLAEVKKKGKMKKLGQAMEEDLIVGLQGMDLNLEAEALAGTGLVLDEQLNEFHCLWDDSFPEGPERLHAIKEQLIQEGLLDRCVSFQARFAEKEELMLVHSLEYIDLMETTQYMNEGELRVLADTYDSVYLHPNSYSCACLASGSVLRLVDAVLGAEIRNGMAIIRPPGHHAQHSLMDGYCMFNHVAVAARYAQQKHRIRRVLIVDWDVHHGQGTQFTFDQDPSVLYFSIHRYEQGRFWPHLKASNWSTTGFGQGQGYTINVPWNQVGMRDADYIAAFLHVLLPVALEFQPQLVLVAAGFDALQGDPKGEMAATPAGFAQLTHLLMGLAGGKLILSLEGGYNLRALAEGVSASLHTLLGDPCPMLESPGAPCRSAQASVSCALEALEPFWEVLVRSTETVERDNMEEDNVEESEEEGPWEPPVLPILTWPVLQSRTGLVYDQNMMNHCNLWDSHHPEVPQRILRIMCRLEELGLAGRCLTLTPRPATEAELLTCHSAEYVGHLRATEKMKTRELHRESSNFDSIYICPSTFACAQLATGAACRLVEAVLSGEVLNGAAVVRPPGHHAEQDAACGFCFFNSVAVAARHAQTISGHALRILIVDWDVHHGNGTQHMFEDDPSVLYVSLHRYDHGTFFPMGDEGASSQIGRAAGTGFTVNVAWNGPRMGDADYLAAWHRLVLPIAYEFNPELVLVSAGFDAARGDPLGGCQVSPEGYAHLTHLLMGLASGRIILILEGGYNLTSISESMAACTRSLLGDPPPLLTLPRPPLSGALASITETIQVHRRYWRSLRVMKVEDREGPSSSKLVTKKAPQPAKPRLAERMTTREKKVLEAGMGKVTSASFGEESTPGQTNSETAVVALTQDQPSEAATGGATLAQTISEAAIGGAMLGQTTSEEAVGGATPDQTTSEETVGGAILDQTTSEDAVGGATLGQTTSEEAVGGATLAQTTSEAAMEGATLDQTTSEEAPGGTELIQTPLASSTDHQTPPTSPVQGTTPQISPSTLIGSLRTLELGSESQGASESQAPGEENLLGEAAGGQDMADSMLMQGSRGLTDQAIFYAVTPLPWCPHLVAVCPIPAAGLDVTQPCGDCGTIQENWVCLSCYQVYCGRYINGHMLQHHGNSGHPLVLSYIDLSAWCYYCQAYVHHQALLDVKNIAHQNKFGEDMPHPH
Hi! Could you tag entries with IC50 below 30 nM as MET, and those at or above as NOT MET? Much appreciated.

Request: Hello, I'm reviewing records and need to know if IC50 of "Cn1c(CNc2cccc3ccccc23)nc2cc(C(=O)NO)ccc21" is below 30 nM. Could you check?
Response: MET

Request: Hello, I'm reviewing records and need to know if IC50 of "C[C@H](NCc1ccccc1)c1nc2cc(C(=O)NO)ccc2n1C" is below 30 nM. Could you check?
Response: MET

Request: Hello, I'm reviewing records and need to know if IC50 of "CCn1c(CNc2ccccc2)nc2cc(C(=O)NO)ccc21" is below 30 nM. Could you check?
Response: NOT MET

Request: Hello, I'm reviewing records and need to know if IC50 of "Cc1ccccc1NCc1nc2cc(C(=O)NO)ccc2n1C" is below 30 nM. Could you check?
Response: MET

Request: Hello, I'm reviewing records and need to know if IC50 of "Cn1c(CNc2ccccc2F)nc2cc(C(=O)NO)ccc21" is below 30 nM. Could you check?
Response: MET

Request: Hello, I'm reviewing records and need to know if IC50 of "CCN(Cc1nc2cc(C(=O)NO)ccc2n1C)c1ccccc1" is below 30 nM. Could you check?
Response: MET

Request: Hello, I'm reviewing records and need to know if IC50 of "Cn1c(CSc2ccccc2)nc2cc(C(=O)NO)ccc21" is below 30 nM. Could you check?
Response: MET

Request: Hello, I'm reviewing records and need to know if IC50 of "O=C(NO)c1ccc2c(c1)nc(CNc1ccccc1)n2C1CC1" is below 30 nM. Could you check?
Response: NOT MET

Request: Hello, I'm reviewing records and need to know if IC50 of "CN(Cc1nc2cc(C(=O)NO)ccc2n1C)c1ccccc1" is below 30 nM. Could you check?
Response: MET

Request: Hello, I'm reviewing records and need to know if IC50 of "CCCCN(Cc1nc2cc(C(=O)NO)ccc2n1C)c1ccccc1" is below 30 nM. Could you check?
Response: MET

Request: Hello, I'm reviewing records and need to know if IC50 of "O=C(NO)c1ccc2nc(CCc3ccccc3)[nH]c2c1" is below 30 nM. Could you check?
Response: NOT MET
